Measured inhibition at 0.01 µM by item
Molecular target: PI3K-δ (PI3K(p1108/p857) (h)) (Homo sapiens, UniProt O00329)
Sequence (O00329 whole entry): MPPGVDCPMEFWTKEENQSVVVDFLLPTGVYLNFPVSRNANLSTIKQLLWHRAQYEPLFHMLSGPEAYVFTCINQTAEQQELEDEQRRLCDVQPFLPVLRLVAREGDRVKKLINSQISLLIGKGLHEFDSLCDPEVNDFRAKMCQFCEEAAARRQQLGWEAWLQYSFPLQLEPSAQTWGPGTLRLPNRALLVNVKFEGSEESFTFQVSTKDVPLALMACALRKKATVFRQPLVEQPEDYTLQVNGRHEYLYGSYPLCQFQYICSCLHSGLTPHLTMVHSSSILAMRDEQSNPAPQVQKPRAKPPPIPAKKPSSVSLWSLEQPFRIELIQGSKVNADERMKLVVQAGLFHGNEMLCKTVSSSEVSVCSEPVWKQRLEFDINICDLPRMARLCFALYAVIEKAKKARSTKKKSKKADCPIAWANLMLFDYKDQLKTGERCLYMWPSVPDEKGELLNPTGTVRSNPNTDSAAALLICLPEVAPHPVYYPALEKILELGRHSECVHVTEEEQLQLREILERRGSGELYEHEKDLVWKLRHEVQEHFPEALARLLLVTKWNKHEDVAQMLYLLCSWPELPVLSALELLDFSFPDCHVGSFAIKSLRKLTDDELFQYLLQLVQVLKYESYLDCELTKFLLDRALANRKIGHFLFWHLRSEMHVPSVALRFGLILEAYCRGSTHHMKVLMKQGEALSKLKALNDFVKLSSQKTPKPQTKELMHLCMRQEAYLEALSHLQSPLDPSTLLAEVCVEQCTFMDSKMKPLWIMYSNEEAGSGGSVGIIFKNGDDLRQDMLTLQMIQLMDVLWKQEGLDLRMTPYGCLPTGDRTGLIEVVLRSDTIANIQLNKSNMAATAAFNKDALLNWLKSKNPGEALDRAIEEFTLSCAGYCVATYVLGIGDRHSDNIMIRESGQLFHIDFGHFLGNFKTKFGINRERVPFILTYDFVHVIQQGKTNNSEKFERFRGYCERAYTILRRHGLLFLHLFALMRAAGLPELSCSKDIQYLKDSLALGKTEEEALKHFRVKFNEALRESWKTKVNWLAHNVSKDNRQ
Sequence (P27986 whole entry partner): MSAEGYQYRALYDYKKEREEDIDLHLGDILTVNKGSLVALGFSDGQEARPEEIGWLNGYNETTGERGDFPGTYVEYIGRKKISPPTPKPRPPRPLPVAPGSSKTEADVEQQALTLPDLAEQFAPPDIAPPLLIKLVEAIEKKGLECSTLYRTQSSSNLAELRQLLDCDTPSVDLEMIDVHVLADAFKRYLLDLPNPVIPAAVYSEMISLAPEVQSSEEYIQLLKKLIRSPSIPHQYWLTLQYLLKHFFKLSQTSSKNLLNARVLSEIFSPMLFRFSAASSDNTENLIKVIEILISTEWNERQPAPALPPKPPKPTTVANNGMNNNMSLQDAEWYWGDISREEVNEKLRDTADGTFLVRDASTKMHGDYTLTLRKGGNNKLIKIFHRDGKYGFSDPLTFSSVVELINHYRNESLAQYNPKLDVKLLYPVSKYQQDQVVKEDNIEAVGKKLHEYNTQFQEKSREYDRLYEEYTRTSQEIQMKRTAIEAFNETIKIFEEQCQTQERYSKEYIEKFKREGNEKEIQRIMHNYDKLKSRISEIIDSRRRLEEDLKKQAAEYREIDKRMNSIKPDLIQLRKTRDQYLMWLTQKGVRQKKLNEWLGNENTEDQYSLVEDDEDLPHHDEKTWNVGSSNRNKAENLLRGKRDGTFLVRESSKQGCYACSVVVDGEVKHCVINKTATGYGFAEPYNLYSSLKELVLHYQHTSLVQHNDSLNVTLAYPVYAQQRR
Assay: Evaluation of inhibitory activity against PI3K-δ (HTRF kinase assay)
Assay type: biochemical
Details: compound concentration 0.01 μM; read-out: EXP_VALUE(% Inhibition) PI3K-δ 0.01 μM
Number only, in %; omit the unit.

Example entries begin here.
compound: C[C@H](Nc1ncnc2[nH]ccc(=O)c12)c1c(Cl)c2cccc(-c3ccc(SC4CC4)cc3)c2c(=O)n1-c1ccccc1 [Example 152]
test.result: 58
--
compound: C[C@H](Nc1ncnc2[nH]ccc(=O)c12)c1c(Cl)c2cccc(N)c2c(=O)n1-c1ccccc1 [Example 294]
test.result: 65

Now consider the entry below.
**Q:** Look up inhibition at 0.01 µM: C[C@H](Nc1ncnc2[nH]ccc(=O)c12)c1c(Cl)c2cccc(-c3ccc(N4CCN(C(=O)OC(C)(C)C)CC4)cc3)c2c(=O)n1-c1ccccc1 [Example 138]
**A:** 33

---

Biological target: DNA-PK(h) (Homo sapiens, UniProt P78527)
Experiment: Evaluation of inhibitory activity against DNA-PK (HTRF kinase assay, GST-cMyc-p53 substrate)
Format: biochemical
Conditions: compound concentration 0.01 μM; read-out: EXP_VALUE(% Inhibition) DNA-PK(h) 0.01 μM
Protocol: <Experimental Example 2> Evaluation of Inhibitory Activity Properties Against DNA-PK […] DNA-PK(h) was subjected to an isothermal treatment in an assay buffer comprising […] GST-cMyc-p53 and Mg/ATP (at a concentration as required). […] A plate was read in a time-resolved fluorescence mode and a homogeneous time-resolved fluorescence (HTRF) signal was determined according to HTRF=10000×(Em 665 nm/Em 620 nm).
measured.attribute: inhibition at 0.01 µM (%)
Note: unit % is implicit; provide only the numeric part.

smiles.input: C[C@H](Nc1ncnc2[nH]ccc(=O)c12)c1c(Cl)c2cccc(-c3cnc(CC#N)nc3)c2c(=O)n1-c1ccccc1
inhibition at 0.01 µM / %: 57

smiles.input: C[C@H](Nc1ncnc2[nH]ccc(=O)c12)c1c(Cl)c2cccc(-c3ccc(N)nc3)c2c(=O)n1-c1ccccc1
inhibition at 0.01 µM / %: 82

**Q:** Record request: inhibition at 0.01 µM value, item C[C@H](Nc1ncnc2[nH]ccc(=O)c12)c1c(Cl)c2cccc(-c3cnc(OCC(F)(F)F)nc3)c2c(=O)n1-c1ccccc1
**A:** 38

---

Target: UniProtKB P78527
Assay: Evaluation of inhibitory activity against DNA-PK (HTRF kinase assay, GST-cMyc-p53 substrate)
Type: biochemical
Conditions: compound concentration 0.01 μM; read-out: EXP_VALUE(% Inhibition) DNA-PK(h) 0.01 μM
Decision: inhibition at 0.01 µM compared against 70%; not below it gives satisfied, below it gives not satisfied.

Past entries and their recorded results:
compound: C[C@H](Nc1ncnc2[nH]ccc(=O)c12)c1c(Cl)c2cccc(-c3cnc(N4CCOCC4)nc3)c2c(=O)n1-c1ccccc1
class: not satisfied
--
compound: Cc1cncc(-c2cccc3c(Cl)c([C@H](C)Nc4ncnc5[nH]ccc(=O)c45)n(-c4ccccc4)c(=O)c23)c1
class: satisfied
--
compound: C[C@H](Nc1ncnc2[nH]ccc(=O)c12)c1c(Cl)c2cccc(N3CC4CCCC4C3)c2c(=O)n1-c1ccccc1 (stereo partly drawn)
class: not satisfied
--
compound: C[C@H](Nc1ncnc2[nH]ccc(=O)c12)c1c(Cl)c2cccc(-c3ccc(OC4CCOCC4)nc3)c2c(=O)n1-c1ccccc1
class: not satisfied
--
compound: COc1cc(-c2cccc3c(Cl)c([C@H](C)Nc4ncnc5[nH]ccc(=O)c45)n(-c4ccccc4)c(=O)c23)ccc1OC(F)(F)F
class: not satisfied

Consider the record given below.
**Q:** // inclusive: inhibition at 0.01 µM at least 70%? input: C[C@H](Nc1ncnc2[nH]ccc(=O)c12)c1c(Cl)c2cccc(-c3ccc4ncn(C)c4c3)c2c(=O)n1-c1ccccc1
**A:** satisfied
